Molecular target: human mAChR M1 (Homo sapiens)
Sequence (P11229 1-460): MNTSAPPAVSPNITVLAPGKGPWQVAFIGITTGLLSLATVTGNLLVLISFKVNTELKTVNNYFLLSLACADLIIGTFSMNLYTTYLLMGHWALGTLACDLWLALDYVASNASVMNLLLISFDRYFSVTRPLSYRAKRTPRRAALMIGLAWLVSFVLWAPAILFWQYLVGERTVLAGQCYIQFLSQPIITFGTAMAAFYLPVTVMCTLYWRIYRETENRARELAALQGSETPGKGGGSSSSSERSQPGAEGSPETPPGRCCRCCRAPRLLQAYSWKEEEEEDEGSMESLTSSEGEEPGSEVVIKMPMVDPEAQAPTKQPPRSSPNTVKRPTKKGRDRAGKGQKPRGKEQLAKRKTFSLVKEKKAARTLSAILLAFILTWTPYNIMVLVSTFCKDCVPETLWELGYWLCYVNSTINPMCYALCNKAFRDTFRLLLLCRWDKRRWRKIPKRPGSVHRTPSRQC
Test: mAChR M1 cell-based functional assay (calcium mobilization), PAM mode: increase in the EC20 acetylcholine response
Below, each entry is listed alongside its reported Emax.
Put down the number, then write its unit next to it.

[
  {
    "compound": "[2H]C1([2H])c2ncccc2C(=O)N1Cc1c(C)cc(-c2cccc3nn(C)cc23)cc1F (single isomer, unassigned)",
    "target_of_assay": "human mAChR M1 (Homo sapiens)",
    "Emax": "82%"
  },
  {
    "compound": "[2H]C1([2H])c2ncccc2C(=O)N1Cc1c(F)cc(-c2cccc3nn(C)cc23)cc1OCC(C)C",
    "target_of_assay": "human mAChR M1 (Homo sapiens)",
    "Emax": "83%"
  },
  {
    "compound": "[2H]C1([2H])c2ncccc2C(=O)N1Cc1ccc(-c2ccc(OCC)c3nn(C)cc23)cc1F",
    "target_of_assay": "human mAChR M1 (Homo sapiens)",
    "Emax": "74%"
  },
  {
    "compound": "[2H]C1([2H])c2ncccc2C(=O)N1Cc1c(F)cc(-c2ccc(C(F)(F)F)c3nn(C)cc23)cc1F",
    "target_of_assay": "human mAChR M1 (Homo sapiens)",
    "Emax": "65%"
  },
  {
    "compound": "[2H]C1([2H])c2ncccc2C(=O)N1Cc1ccc(-c2ccc(C)c3nn(C)cc23)cc1F",
    "target_of_assay": "human mAChR M1 (Homo sapiens)",
    "Emax": "80%"
  },
  {
    "compound": "[2H]C1([2H])c2ncccc2C(=O)N1Cc1c(F)cc(-c2cccc3nn(C([2H])([2H])[2H])cc23)cc1Cl",
    "target_of_assay": "human mAChR M1 (Homo sapiens)",
    "Emax": "81%"
  },
  {
    "compound": "[2H]C1([2H])c2ncccc2C(=O)N1Cc1c(F)cc(-c2cnc3nn(C([2H])([2H])[2H])cc3c2)cc1F",
    "target_of_assay": "human mAChR M1 (Homo sapiens)",
    "Emax": "68%"
  },
  {
    "compound": "[2H]C1([2H])c2ncccc2C(=O)N1Cc1c(F)cc(-c2cccc3nn(C(C)C)cc23)cc1F",
    "target_of_assay": "human mAChR M1 (Homo sapiens)",
    "Emax": "86%"
  },
  {
    "compound": "[2H]C1([2H])c2ncccc2C(=O)N1Cc1c(F)cc(-c2ccc(OCC3CCCO3)c3nn(C)cc23)cc1F (centres unmarked)",
    "target_of_assay": "human mAChR M1 (Homo sapiens)",
    "Emax": "75%"
  },
  {
    "compound": "[2H]C1([2H])c2ncccc2C(=O)N1Cc1c(F)cc(-c2ccc(Cl)c3nn(C([2H])([2H])[2H])cc23)cc1F",
    "target_of_assay": "human mAChR M1 (Homo sapiens)",
    "Emax": "77%"
  }
]

Give human mAChR M1 (Homo sapiens) Emax for the following compound: [2H]C1([2H])c2ncccc2C(=O)N1Cc1c(F)cc(-c2ccc(OC3CC3)c3nn(C)cc23)cc1C1CC1
81%

Give the observed Emax of [2H]C1([2H])c2ncccc2C(=O)N1Cc1c(F)cc(-c2cccc3nn(C)cc23)cc1N1CCC1 for human mAChR M1 (Homo sapiens).
82%

Please report the measured Emax for [2H]C1([2H])c2ncccc2C(=O)N1Cc1c(F)cc(-c2ccc(OC3CN(C(=O)OC(C)(C)C)C3)c3nn(C)cc23)cc1F tested on human mAChR M1 (Homo sapiens).
82%

Find Emax for [2H]C1([2H])c2ncccc2C(=O)N1Cc1c(F)cc(-c2ccc(OCC3CCO3)c3nn(C)cc23)cc1F (centres unmarked) on human mAChR M1 (Homo sapiens) and write it down.
78%

====

Target: human mAChR M1 (Homo sapiens)
Sequence (P11229 1-460): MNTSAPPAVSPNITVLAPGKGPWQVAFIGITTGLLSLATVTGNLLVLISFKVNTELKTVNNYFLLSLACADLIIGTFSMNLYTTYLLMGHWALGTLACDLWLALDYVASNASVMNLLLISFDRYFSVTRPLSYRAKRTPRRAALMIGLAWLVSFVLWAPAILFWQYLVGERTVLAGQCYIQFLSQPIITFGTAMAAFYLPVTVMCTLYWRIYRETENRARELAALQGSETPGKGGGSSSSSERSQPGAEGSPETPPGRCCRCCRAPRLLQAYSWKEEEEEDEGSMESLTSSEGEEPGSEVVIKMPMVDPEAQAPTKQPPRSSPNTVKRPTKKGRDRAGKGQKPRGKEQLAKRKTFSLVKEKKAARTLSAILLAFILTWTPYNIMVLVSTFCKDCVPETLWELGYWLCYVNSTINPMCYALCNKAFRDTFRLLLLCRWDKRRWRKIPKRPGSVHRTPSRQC
Assay: mAChR M1 cell-based functional assay (calcium mobilization), agonist mode: compound alone, Emax relative to acetylcholine maximum
Conditions: relative to the maximum for acetylcholine
Criterion: Emax strictly under 6%. Met: 1 (yes). Not met: 0 (no).

[
  {
    "molecule": "[2H]C1([2H])c2ncccc2C(=O)N1Cc1c(F)cc(-c2ccc(C)c3nn(C)cc23)cc1C1CC1",
    "assigned_class": "0 (no)"
  },
  {
    "molecule": "[2H]C1([2H])c2ncccc2C(=O)N1Cc1c(F)cc(-c2cccc3c2cnn3C)cc1F",
    "assigned_class": "1 (yes)"
  },
  {
    "molecule": "[2H]C1([2H])c2ncccc2C(=O)N1Cc1c(F)cc(-c2cc3cn(C)nc3cc2F)cc1F",
    "assigned_class": "1 (yes)"
  },
  {
    "molecule": "[2H]C1([2H])c2ncccc2C(=O)N1Cc1ccc(-c2cccc3nn(C)cc23)cc1F",
    "assigned_class": "0 (no)"
  },
  {
    "molecule": "[2H]C1([2H])c2ncccc2C(=O)N1Cc1c(F)cc(-c2ccc(OC(C)COC)c3nn(C)cc23)cc1F (stereo not drawn)",
    "assigned_class": "0 (no)"
  },
  {
    "molecule": "[2H]C1([2H])c2ncccc2C(=O)N1Cc1ccc(-c2cccc3ccnn23)cc1",
    "assigned_class": "1 (yes)"
  },
  {
    "molecule": "[2H]C1([2H])c2ncccc2C(=O)N1Cc1c(F)cc(-c2ccc(OC)c3c2cnn3C([2H])([2H])[2H])cc1F",
    "assigned_class": "1 (yes)"
  },
  {
    "molecule": "[2H]C1([2H])c2ncccc2C(=O)N1Cc1c(F)cc(-c2ccc(F)c3nn(C([2H])([2H])[2H])cc23)cc1F",
    "assigned_class": "1 (yes)"
  },
  {
    "molecule": "[2H]C1([2H])c2ncccc2C(=O)N1Cc1c(C)cc(-c2ccc(C(F)(F)F)c3nn(C)cc23)cc1F",
    "assigned_class": "0 (no)"
  },
  {
    "molecule": "[2H]C1([2H])c2ncccc2C(=O)N1Cc1c(C)cc(-c2ccc(C)c3nn(C([2H])([2H])[2H])cc23)cc1F",
    "assigned_class": "0 (no)"
  }
]

I'd appreciate it if you could check whether [2H]C1([2H])c2ncccc2C(=O)N1Cc1ccc(-c2cc3cn(C)nc3cc2F)cc1F has Emax smaller than 6%.
1 (yes)

I'd appreciate it if you could check whether [2H]C1([2H])c2ncccc2C(=O)N1Cc1c(F)cc(-c2cc(Cl)cc3nn(C([2H])([2H])[2H])cc23)cc1F has Emax smaller than 6%.
1 (yes)

Decide: Emax of [2H]C1([2H])c2ncccc2C(=O)N1Cc1c(F)cc(-c2cnc(OC)c3nn(C)cc23)cc1F strictly below 6%?
1 (yes)

Find out if reported Emax for [2H]C1([2H])c2ncccc2C(=O)N1Cc1c(F)cc(-c2cc(F)c3nn(C)cc3c2)cc1F is less than 6%
1 (yes)
